Data provenance: patent US20180303952A1

- STUDY TARGET: T1, human CD147 protein (adsorbed to ELISA plates) (human, UniProt P35613-2 22-205, limits assumed)
- T1 construct: also called human CD147 polypeptide; Basigin
- T1 sequence (looked up): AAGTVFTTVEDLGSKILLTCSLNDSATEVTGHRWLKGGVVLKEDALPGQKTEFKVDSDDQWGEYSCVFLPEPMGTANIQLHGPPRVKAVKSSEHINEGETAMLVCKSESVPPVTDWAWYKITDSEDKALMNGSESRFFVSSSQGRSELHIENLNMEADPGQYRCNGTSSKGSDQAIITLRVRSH
- METHOD: ELISA, human CD147 protein adsorbed to plate, intact activatable antibody; apparent KD
Listed below: pKd values for each entry.
Here pKd is given on a logarithmic scale as minus log10 of the concentration in mol/L.

anti-human CD147 activatable antibody hu 3A11 Hc1/Lc1-414.2-3001 (antibody, also called hu 3A11-414.2-3001) VH: EVQLVESGGGLVQPGGSLRLSCAASGFTFSNYWMDWVRQAPGKGLEWVGEIRLKSYNYATHYAASVKGRFTISRDDSKNSVYLQMNSLKTEDTAVYYCTAAGTDYWGQGTLVTVSS VL: THGPCHFKPQCSYPTGGGSSGGSAVGLLAPPGGLSGRSDNHGGSDIQMTQSPSSLSASVGDRVTITCRASQSVRTDVGWYQQKPGKAPKLLIYYSSNRYTGVPSRFSGSGSGTDFTLTISSLQPEDFATYYCQQDYSSPYTFGQGTKLEIK = 7.81

[in] Form field: reported pKd of anti-human CD147 activatable antibody hu 3A11 Hc1/Lc1-414.1-3001 (antibody, V domains shown, also called hu 3A11-414.1-3001) VH: EVQLVESGGGLVQPGGSLRLSCAASGFTFSNYWMDWVRQAPGKGLEWVGEIRLKSYNYATHYAASVKGRFTISRDDSKNSVYLQMNSLKTEDTAVYYCTAAGTDYWGQGTLVTVSS VL: THGPCHFKPNCGGGSSGGSAVGLLAPPGGLSGRSDNHGGSDIQMTQSPSSLSASVGDRVTITCRASQSVRTDVGWYQQKPGKAPKLLIYYSSNRYTGVPSRFSGSGSGTDFTLTISSLQPEDFATYYCQQDYSSPYTFGQGTKLEIK
[out] 7.86
